Where do the numbers come from? From paper PMC13494018.

target: VTCN1, Q7Z7D3
Sequence (Q7Z7D3 whole entry): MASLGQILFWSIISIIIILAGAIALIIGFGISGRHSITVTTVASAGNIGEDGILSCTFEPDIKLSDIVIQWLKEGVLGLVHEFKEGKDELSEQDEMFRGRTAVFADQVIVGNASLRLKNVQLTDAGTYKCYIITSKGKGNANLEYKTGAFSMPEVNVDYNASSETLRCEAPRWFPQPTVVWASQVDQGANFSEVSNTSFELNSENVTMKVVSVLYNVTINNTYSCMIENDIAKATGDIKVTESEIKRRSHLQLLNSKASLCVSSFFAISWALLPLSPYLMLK

{"columns": ["binder", "binding in a display sort"],
 "data": [
  ["d3r1_design_ppi_578_dldesign_0_cycle0_af2pred (protein) MEELEEARKRADELEKEVKKLEPLFKEASKEAAELAENAKKAIEAAKKFIEDKSQIELAQRAVDQAEKNLKLAKELMEKILKEK", "not found (inactive)"],
  ["d4r2_design_ppi_295_dldesign_0_cycle1_af2pred (protein) MAEEAAKAVKNRAERLAKEFPEAAPVMKAVAEEAKKKLEEAKGKSPTEIANVAQDYQAEATAKYAEVKRETEKKLAA", "not found (inactive)"],
  ["d4r4_design_ppi_90_dldesign_0_cycle1_af2pred (protein) MTKEEAERMIKILKERLEKIKKAGKEKGEEMQKIAKELEEALKKAEEAFKKDPEKAGAYFQEARQIAAEGEFKEK", "not found (inactive)"],
  ["d4r4_design_ppi_303_dldesign_0_cycle0_af2pred (protein) MAERAAIMEEARENAIKAYEYAVKLKKIDPELGKEYMKKIDKLMKEAVEAAKDAEKAKKKAEEIKKLAEEIEKIAKEK", "not found (inactive)"],
  ["d4r4_design_ppi_229_dldesign_0_cycle1_af2pred (protein) EKEEKKKEAKELAEEAKKLAEELAKAAEEDLEKAKELYKKAKEAAGKAIKLAKEAGDKETAKEASENNFKAHENYAEGKFK", "not found (inactive)"],
  ["d4r5_design_ppi_305_dldesign_0_cycle1_af2pred (protein) KEKEMKKEVKKALEEAKKAAEEAIKSGDVKKLKEAAVKAQEAATVAKYIASKAKDKEVKKEAKKAAKEALELAKKVAEEAKKAE", "not found (inactive)"],
  ["d4r2_design_ppi_226_dldesign_0_cycle0_af2pred (protein) SELEEEAKKVAEEARELAKEAEEAAEKILKEKNNLKEAGTLYAQSAQAKQAAEAVELNPEKAEEARERLKKAKERMKEAVKKAE", "not found (inactive)"],
  ["d4r4_design_ppi_486_dldesign_0_cycle0_af2pred (protein) MEETIERAKEAAREALEAAREAAKKNAADPEKVKKLAELAQKAQEARAEALAKPEKAEEALKRIEEYLKEAKEILE", "not found (inactive)"],
  ["d3r1_design_ppi_576_dldesign_0_cycle1_af2pred (protein) GEEEEKAKETIKKMEELAKKGAENPEKGKEYVAEAMRIGRETAKELSEEVGEKVLKKAEEIASEAMKKVLENKKKLA", "not found (inactive)"],
  ["d4r5_design_ppi_63_dldesign_0_cycle1_af2pred (protein) SLAEEAEKKLKEYAALRIEAGDLSEEEAKKTFKEIAKEAKELAKKLEADPNAKEVAKKAKKLAGAAESAAKAIEKA", "not found (inactive)"]
]}
